test: solvent given as SMILES; conditions: in CCOc1ccccc1
Field: solvation free energy, 298 K. Provide a value for each of the compounds that follow.
Numbers only; they are read as kcal/mol.

Request: Dear colleague, please send me the reported solvation free energy, 298 K for "CCCCCCCC" when you can.
Response: -4.77

Request: Report measured solvation free energy, 298 K; entry is "CCCCCCCCC"
Response: -5.42

Request: Determine its reported solvation free energy, 298 K: "C[N+](=O)[O-]"
Response: -4.39

Request: Give the measured solvation free energy, 298 K for "CCO"
Response: -3.36

Request: Look up solvation free energy, 298 K of "CC(C)C(C)C(C)C" and report it.
Response: -4.42

Request: Give reported solvation free energy, 298 K value for "CCCCCC"
Response: -3.49

Request: Quick one: give measured solvation free energy, 298 K for "CCCCCCC"
Response: -4.15

Request: Tell me measured solvation free energy, 298 K for "CC(C)CCC(C)C" please.
Response: -4.31

Request: Tell me its solvation free energy, 298 K given "CCCCC" as the entry.
Response: -2.82

Where these numbers come from: the CombiSolv-Exp solvation set (Vermeire and Green 2021)
